Attribution: paper PMC9065035

Overview of recorded Kd for various binders
target desc: T1, Drosophila melanogaster C1GalT1, residues T43-Q388 (DmC1GalT1^T43-Q388) (Drosophila melanogaster, UniProt Q7K237 43-388)
T1 construct: N-glycosylated when made in HEK293; also called core 1/T-synthase; source: HEK293, transfected (pHLSec), secreted, purified (His-Trap, Superdex 75)
T1 sequence (Q7K237 43-388): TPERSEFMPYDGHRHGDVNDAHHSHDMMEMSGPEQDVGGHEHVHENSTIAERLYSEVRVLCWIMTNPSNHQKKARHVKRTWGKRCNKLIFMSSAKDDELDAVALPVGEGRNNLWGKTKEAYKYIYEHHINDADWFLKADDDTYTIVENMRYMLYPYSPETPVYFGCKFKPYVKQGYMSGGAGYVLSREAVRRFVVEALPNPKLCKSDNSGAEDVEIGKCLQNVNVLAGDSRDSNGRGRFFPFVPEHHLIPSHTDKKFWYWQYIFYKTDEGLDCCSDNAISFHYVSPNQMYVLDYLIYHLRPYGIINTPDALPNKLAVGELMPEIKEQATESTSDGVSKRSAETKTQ
protocol summary: ITC; 2 mM glycopeptide titrated into the enzyme (60 uM for APDT*RP, 50 uM for P4/P7); excess of UDP: 25 mM TRIS pH 7.5, 150 mM NaCl, 1 mM UDP, 1 mM MnCl2; 20 °C; one-site model; duplicate
condition info: both partners purified
Ends that are not written are not given here. * marks the point of attachment. αGalNAc = CC(=O)N[C@@H]1[C@@H](O)[C@@H](O)[C@@H](CO)O[C@@H]1*
readout name: Kd (µM)

binder	recorded value
YADT(αGalNAc)GPF-NH2 (Asp at -1; Tied to the name P7 by the text (Asp at -1; ITC was done with P4 and P7 only besides APDT*RP); Made on Rink Amide MBHA resin, so probably a C-terminal amide (surmised); source: synthetic peptide (solid-phase synthesis, HPLC purified)) [P7 glycopeptide YADT*GPF (GalNAc on Thr)]	60
PAAT(αGalNAc)GPY-NH2 (Tied to the name P4 by the residues that the text names for P4 (Pro1, Ala2, Ala3, Thr4, Gly5, Tyr7); Made on Rink Amide MBHA resin, so probably a C-terminal amide (surmised); source: synthetic peptide (solid-phase synthesis, HPLC purified)) [P4 glycopeptide PAAT*GPY (GalNAc on Thr)]	60.3
